Target System: recombinant neuraminidase (rNA) of B/Malaysia/2506/04 (influenza B virus B/Malaysia/2506/04)
Parameter Measured: Kd (pM)
Give bare numbers, in pM.

recombinant 4F11 monomeric IgA (antibody, V domains shown) VH: DVKLVESGGDLVKPGGSLKLSCAASGFTFSAYSMSWVRQTPERRLEWVATINTGGSFTYYPDSVKGRFTISRDNAKNTLYLQMSSLKSEDTAMYFCTRVSDYGNSAYFPYWGQGTLVIVSA VL: QVVLTQSPALISASPGEKVTMTCSASSNVNYMSWYQQRPRSSPKPWIYLTSKLASGVPPRFSGSGSGTSYSLTISSMEAEDVATYYCQQWSSDPQTFGGGTKVEIK; 4.72
recombinant 4F11 IgG2a (antibody, V domains shown) VH: DVKLVESGGDLVKPGGSLKLSCAASGFTFSAYSMSWVRQTPERRLEWVATINTGGSFTYYPDSVKGRFTISRDNAKNTLYLQMSSLKSEDTAMYFCTRVSDYGNSAYFPYWGQGTLVIVSA VL: QVVLTQSPALISASPGEKVTMTCSASSNVNYMSWYQQRPRSSPKPWIYLTSKLASGVPPRFSGSGSGTSYSLTISSMEAEDVATYYCQQWSSDPQTFGGGTKVEIK; 3.36

Shift focus to the following entry.
Exam item: Reported Kd, binder recombinant 4F11 IgG2b (antibody, V domains shown) VH: DVKLVESGGDLVKPGGSLKLSCAASGFTFSAYSMSWVRQTPERRLEWVATINTGGSFTYYPDSVKGRFTISRDNAKNTLYLQMSSLKSEDTAMYFCTRVSDYGNSAYFPYWGQGTLVIVSA VL: QVVLTQSPALISASPGEKVTMTCSASSNVNYMSWYQQRPRSSPKPWIYLTSKLASGVPPRFSGSGSGTSYSLTISSMEAEDVATYYCQQWSSDPQTFGGGTKVEIK : ____
Marked response: 2.98

Source listed as patent US20220153873A1.
